The origin of these recorded values is patent US20210230273A1.

TEST TARGET: recombinant human CD200 Fc Chimera (human) (UniProt P41217)
ASSAY COMMENT: SPR (Biacore 3000), CD200-Fc captured by anti-human Fc on CM5, Fab injected, 1:1 Langmuir
PARAMETER MEASURED: log10 of Kd (log10 of the value in nM)
Base-10 log of Kd, unit nM.

(Q) Requested read-out: log10 of Kd. Entry: TPP-101 (Fab, V domains shown) VH: QVQLQQSGSELKKPGASVKISCKASGYSFTDYIILWVRQNPGKGLEWIGHIDPYYGSSNYNLKFKGRVTITADQSTTTAYMELSSLRSEDTAVYYCGRSKRDYFDYWGQGTTLTVSS VL: DIQMTQSPSSLSASIGDRVTITCKASQDINSYLSWFQQKPGKAPKLLIYRANRLVDGVPSRFSGSGSGTDYTLTISSLQPEDFAVYYCLQYDEFPYTFGGGTKLEIK
(A) 0.74

(Q) Requested read-out: log10 of Kd. Entry: TPP-131 (Fab, V domains shown) VH: QMQLVQSGAEVKKTGSSVKVSCKASGYSFTDYIILWVRQAPGQALEWMGHIDPYYGSSNYNLKFKGRVTITRDRSMSTAYMELSSLRSEDTAMYYCARSKRDYFDYWGQGTLVTVSS VL: DIQMTQSPSSLSASVGDRVTITCKASQDINSYLSWFQQKPGKAPKSLIYRANRLVDGVPSRFSGSGSGTDFTLTISSLQPEDFATYYCLQYDEFPYTFGQGTKLEIK
(A) -0.05

(Q) Requested read-out: log10 of Kd. Entry: TPP-107 (Fab, V domains shown) VH: QVQLVQSGAEVKKPGSSVKVSCKASGYSFTDYIILWVRQAPGQGLEWMGHIDPYYGSSNYNLKFKGRVTITADESTSTAYMELSSLRSEDTAVYYCARSKRDYFDYWGQGTLVTVSS VL: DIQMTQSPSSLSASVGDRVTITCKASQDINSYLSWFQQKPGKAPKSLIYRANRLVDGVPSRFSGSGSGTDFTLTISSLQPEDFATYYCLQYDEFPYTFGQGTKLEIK
(A) 0.67

(Q) Requested read-out: log10 of Kd. Entry: TPP-135 (Fab, V domains shown) VH: QMQLVQSGPEVKKPGTSVKVSCKASGYSFTDYIILWVRQARGQRLEWIGHIDPYYGSSNYNLKFKGRVTITRDMSTSTAYMELSSLRSEDTAVYYCAASKRDYFDYWGQGTLVTVSS VL: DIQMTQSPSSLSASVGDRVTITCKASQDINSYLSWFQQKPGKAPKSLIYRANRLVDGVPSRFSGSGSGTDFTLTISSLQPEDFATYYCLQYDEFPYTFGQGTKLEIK
(A) 1.20

(Q) Requested read-out: log10 of Kd. Entry: TPP-123 (Fab, V domains shown) VH: QVQLVQSGAEVKKPGASVKVSCKASGYSFTDYIILWVRQATGQGLEWMGHIDPYYGSSNYNLKFKGRVTMTRNTSISTAYMELSSLRSEDTAVYYCARSKRDYFDYWGQGTLVTVSS VL: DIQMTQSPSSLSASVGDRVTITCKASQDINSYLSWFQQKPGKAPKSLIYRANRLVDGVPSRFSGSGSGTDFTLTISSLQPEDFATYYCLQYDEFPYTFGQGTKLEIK
(A) 0.64

(Q) Requested read-out: log10 of Kd. Entry: TPP-100 (Fab, V domains shown) VH: EVQLQQSGPELVKPGASLKMSCKASGYSFTDYIILWVKQNHGKSLEWIGHIDPYYGSSNYNLKFKGKATLTVDKSSSTAYMQLNSLTSEDSAVYYCGRSKRDYFDYWGQGTTLTVSS VL: DIQMTQSPSSMYASLGERVTITCKASQDINSYLSWFQQKPGKSPKTLIYRANRLVDGVPSRFSGSGSGQDYSLTISSLEYEDMGIYYCLQYDEFPYTFGGGTKLEIK
(A) -0.31

(Q) Requested read-out: log10 of Kd. Entry: TPP-111 (Fab, V domains shown) VH: QVQLVQSGAEVKKPGASVKVSCKASGYSFTDYIILWVRQAPGQGLEWMGHIDPYYGSSNYNLKFKGRVTMTTDTSTSTAYMELRSLRSDDTAVYYCARSKRDYFDYWGQGTLVTVSS VL: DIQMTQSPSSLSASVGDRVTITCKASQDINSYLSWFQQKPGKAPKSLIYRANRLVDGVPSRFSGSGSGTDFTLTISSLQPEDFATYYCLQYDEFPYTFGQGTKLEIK
(A) 0.71
